PROCEDURE TEXT: NBI-750142 concentration in cynomolgus monkey plasma by LC-MS/MS
Assay type: in vivo, cynomolgus monkeys (Macaca fascicularis)
CONDITION SUMMARY: cynomolgus monkey, intravenous, 0.78 mg/kg, GC786, 0.78 mg/kg i.v.
QUANTITY NAME: concentration at 120 min (ng/mL)
State the answer as a number, implicitly in ng/mL.

query: Which concentration at 120 min reading was recorded for the compound "COc1cc2c(cc1OC)[C@H]1CN(C)[C@H](CC(C)(C)C)CN1CC2" ?
result: 75.1

----------
PROCEDURE TEXT: NBI-750142 concentration in cynomolgus monkey plasma by LC-MS/MS
Assay type: in vivo, cynomolgus monkeys (Macaca fascicularis)
CONDITION SUMMARY: cynomolgus monkey, intravenous, 0.52 mg/kg, EC865, 0.52 mg/kg i.v.
Experimental: During each scan, whole blood PK samples were collected (in K2 EDTA tubes) at pre-dose (−5 min), and post-dose at 1 (end of bolus), 30, 60 (just prior to [^18F]AV-133 radiopharmaceutical administration), 90, 120, 150, 180 (end of scan) minutes after test article administration. PK samples were approximately 1 mL each (8 mL total, including pre-dose sample). […] NBI-750142 concentration in cynomolgus monkey plasma samples was analyzed using a qualified LC-MS/MS bioanalytical method. […]
QUANTITY NAME: concentration at 90 min (ng/mL)
State the answer as a number, implicitly in ng/mL.

query: Which concentration at 90 min reading was recorded for the compound "COc1cc2c(cc1OC)[C@H]1CN(C)[C@H](CC(C)(C)C)CN1CC2" ?
result: 35.3

Origin of values: patent US20250064990A1
